Record form. Attribute: Reduction. Fill in for each entry.
- Tested on: Cricetinae gen. sp.
- Assay Info: Compound was tested for % inhibition of cholesterol in the cholesterol-fed hamster model after oral administration at a dose of 10 mg/kg/day.
- Format: functional
Remember to quote the unit after the number.

Exercise: Suppose we examine the compound `COc1ccc([C@H]2[C@H]([C@H](O)CCc3ccccc3)C(=O)N2c2ccccc2)cc1` ; what Reduction value has been reported?
Key: 38%

Exercise: Which measured Reduction value corresponds to `COc1ccc([C@H]2[C@H]([C@@H](O)CCc3ccccc3)C(=O)N2c2ccccc2)cc1` ?
Key: 0%

Exercise: Request the reported Reduction associated with `COc1ccc([C@H]2[C@@H]([C@@H](O)CCc3ccccc3)C(=O)N2c2ccccc2)cc1`
Key: 22%

Exercise: Please report the recorded Reduction for `COc1ccc([C@H]2[C@@H]([C@H](O)CCc3ccccc3)C(=O)N2c2ccccc2)cc1` .
Key: 0%
